- Test system: ileocecal carcinoma (HCT-8)
- protocol.notes: In vitro cytotoxicity, HCT-8
- condition.description: Homo sapiens, HCT-8, read-out: Inhibition at highest test concentration (in brackets), HCT-8
measured.quantity: inhibition at 20 µg/mL (%)
Number only, in %; omit the unit.

*Q* Item: COc1ccc(C2NC(=O)c3ccccc3N2)cc1OC (racemic) Test system: ileocecal carcinoma (HCT-8) Read-out: inhibition at 20 µg/mL Value: ?
*A* 25

*Q* Item: COc1ccc(C2NC(=O)c3ccccc3N2)c(OC)c1 (racemic) Test system: ileocecal carcinoma (HCT-8) Read-out: inhibition at 20 µg/mL Value: ?
*A* 29

*Q* Item: COc1ccccc1C1NC(=O)c2ccccc2N1 (racemic) Test system: ileocecal carcinoma (HCT-8) Read-out: inhibition at 20 µg/mL Value: ?
*A* 21

*Q* Item: COc1cccc(C2NC(=O)c3ccccc3N2)c1OC (racemic) Test system: ileocecal carcinoma (HCT-8) Read-out: inhibition at 20 µg/mL Value: ?
*A* 39

*Q* Item: COc1ccc(C2NC(=O)c3ccccc3N2)cc1 (racemic) Test system: ileocecal carcinoma (HCT-8) Read-out: inhibition at 20 µg/mL Value: ?
*A* 19

*Q* Item: COc1ccc(OC)c(C2NC(=O)c3ccccc3N2)c1 (racemic) Test system: ileocecal carcinoma (HCT-8) Read-out: inhibition at 20 µg/mL Value: ?
*A* 32
